target-desc: Human A2a Adenosine Receptor (Homo sapiens)
Sequence (P29274 whole entry): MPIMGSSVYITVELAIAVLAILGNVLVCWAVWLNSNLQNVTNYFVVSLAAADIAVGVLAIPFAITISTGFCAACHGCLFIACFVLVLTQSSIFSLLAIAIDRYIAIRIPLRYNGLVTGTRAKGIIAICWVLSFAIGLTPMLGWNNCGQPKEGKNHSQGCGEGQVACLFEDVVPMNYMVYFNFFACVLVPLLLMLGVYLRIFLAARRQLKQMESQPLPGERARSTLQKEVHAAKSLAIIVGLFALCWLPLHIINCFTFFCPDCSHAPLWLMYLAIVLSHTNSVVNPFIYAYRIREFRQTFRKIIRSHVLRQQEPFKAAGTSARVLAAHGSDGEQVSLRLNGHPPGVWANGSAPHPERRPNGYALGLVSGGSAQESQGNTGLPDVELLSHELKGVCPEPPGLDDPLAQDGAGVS
assay-metric: pKi
One number for each entry, as −log10 of the molar value.

Per the record, CC#Cc1nc2c3cnn(CCN4CCN(c5cc6c(C)noc6cc5F)CC4)c3nc(N)n2n1 [compound of formula I] has pKi of 9.37
